target: Endothelin-converting enzyme 1 (Homo sapiens); assay: In Vitro inhibition of recombinant human endothelin converting enzyme-1
Consider the following molecules; for each one, report its IC50.
Give the value, in units of nM, as a plain number.

Ask: Observed IC50 on Endothelin-converting enzyme 1 (Homo sapiens) for O=C1c2ccccc2-c2ccc(CC(NCP(=O)(O)O)c3nnn[nH]3)cc21 (centres undefined) , please.
Result: 30

Ask: Observed IC50 on Endothelin-converting enzyme 1 (Homo sapiens) for O=C(O)[C@H](Cc1ccc2c(c1)oc1ccccc12)NC(CCc1cccc2cccnc12)P(=O)(O)O (stereo in doubt; 40m') , please.
Result: 14

Ask: Observed IC50 on Endothelin-converting enzyme 1 (Homo sapiens) for `O=C(O)[C@H](Cc1ccc2c(c1)oc1ccccc12)NC(=O)[C@H](Cc1ccc2c(c1)oc1ccccc12)NCP(=O)(O)O` , please.
Result: 6.4

Ask: Observed IC50 on Endothelin-converting enzyme 1 (Homo sapiens) for CC(N[C@@H](Cc1ccc2c(c1)oc1ccccc12)C(=O)O)P(=O)(O)O (stereo in doubt; 40u) , please.
Result: 96

====

biological target: Endothelin-converting enzyme 1 (Homo sapiens, UniProt P42892); assay: In Vitro inhibition of recombinant human endothelin converting enzyme-1
Sequence (P42892 whole entry): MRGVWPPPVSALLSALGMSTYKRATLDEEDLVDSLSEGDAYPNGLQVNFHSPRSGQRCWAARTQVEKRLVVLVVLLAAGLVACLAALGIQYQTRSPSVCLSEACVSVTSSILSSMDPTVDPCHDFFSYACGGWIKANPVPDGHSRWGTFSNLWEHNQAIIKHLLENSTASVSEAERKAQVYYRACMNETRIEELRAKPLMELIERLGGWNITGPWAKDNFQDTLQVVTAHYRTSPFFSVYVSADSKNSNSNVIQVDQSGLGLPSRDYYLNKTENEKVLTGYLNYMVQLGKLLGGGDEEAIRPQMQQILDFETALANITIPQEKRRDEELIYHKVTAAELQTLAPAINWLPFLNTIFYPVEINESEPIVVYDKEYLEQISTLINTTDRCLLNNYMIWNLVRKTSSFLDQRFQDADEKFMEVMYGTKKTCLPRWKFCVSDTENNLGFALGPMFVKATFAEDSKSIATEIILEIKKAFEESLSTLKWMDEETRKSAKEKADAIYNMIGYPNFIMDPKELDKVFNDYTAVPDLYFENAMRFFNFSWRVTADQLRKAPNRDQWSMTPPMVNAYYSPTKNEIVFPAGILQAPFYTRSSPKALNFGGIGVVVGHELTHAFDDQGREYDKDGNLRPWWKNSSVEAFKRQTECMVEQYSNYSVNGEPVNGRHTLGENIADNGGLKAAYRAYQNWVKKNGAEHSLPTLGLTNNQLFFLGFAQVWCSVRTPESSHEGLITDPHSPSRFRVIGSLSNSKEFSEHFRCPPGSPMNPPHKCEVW
measurementType: pIC50
Scale explanation: pIC50 corresponds to minus log10 of a concentration expressed in moles per litre.

Ask: Endpoint output: pIC50 of O=C(O)[C@H](Cc1ccc2c(c1)oc1ccccc12)NC(CCc1cccc2ccccc12)P(=O)(O)O (stereo in doubt; 40b') . Value?
Result: 5.74

Ask: Endpoint output: pIC50 of CC(C)CC(NC(=O)[C@H](Cc1ccc2c(c1)oc1ccccc12)NCP(=O)(O)O)C(=O)O (some centres not stated) . Value?
Result: 7.89

Ask: Endpoint output: pIC50 of CC(C)CCCC(N[C@@H](Cc1ccc2c(c1)oc1ccccc12)C(=O)O)P(=O)(O)O (some centres not stated) . Value?
Result: 7.19

Ask: Endpoint output: pIC50 of NCCCCC(N[C@@H](Cc1ccc2c(c1)oc1ccccc12)C(=O)O)P(=O)(O)O (stereo in doubt; 40o') . Value?
Result: 7.01

Ask: Endpoint output: pIC50 of COc1ccc(CCC(N[C@@H](Cc2ccc3c(c2)oc2ccccc23)C(=O)O)P(=O)(O)O)cc1OC (stereo in doubt; 40e') . Value?
Result: 7.54

Ask: Endpoint output: pIC50 of COc1ccc(CCC(N[C@@H](Cc2ccc3c(c2)oc2ccccc23)C(=O)O)P(=O)(O)O)c(OC)c1OC (stereo in doubt; 40k') . Value?
Result: 7.46

Ask: Endpoint output: pIC50 of O=P(O)(O)C(CCc1cccc2ccccc12)N[C@@H](Cc1ccc2c(c1)oc1ccccc12)c1nnn[nH]1 (stereo in doubt; 43a') . Value?
Result: 8.59

====

Consider the following compounds; for each one, report its pIC50.
Target: UniProtKB P07861
Sequence (P07861 whole entry): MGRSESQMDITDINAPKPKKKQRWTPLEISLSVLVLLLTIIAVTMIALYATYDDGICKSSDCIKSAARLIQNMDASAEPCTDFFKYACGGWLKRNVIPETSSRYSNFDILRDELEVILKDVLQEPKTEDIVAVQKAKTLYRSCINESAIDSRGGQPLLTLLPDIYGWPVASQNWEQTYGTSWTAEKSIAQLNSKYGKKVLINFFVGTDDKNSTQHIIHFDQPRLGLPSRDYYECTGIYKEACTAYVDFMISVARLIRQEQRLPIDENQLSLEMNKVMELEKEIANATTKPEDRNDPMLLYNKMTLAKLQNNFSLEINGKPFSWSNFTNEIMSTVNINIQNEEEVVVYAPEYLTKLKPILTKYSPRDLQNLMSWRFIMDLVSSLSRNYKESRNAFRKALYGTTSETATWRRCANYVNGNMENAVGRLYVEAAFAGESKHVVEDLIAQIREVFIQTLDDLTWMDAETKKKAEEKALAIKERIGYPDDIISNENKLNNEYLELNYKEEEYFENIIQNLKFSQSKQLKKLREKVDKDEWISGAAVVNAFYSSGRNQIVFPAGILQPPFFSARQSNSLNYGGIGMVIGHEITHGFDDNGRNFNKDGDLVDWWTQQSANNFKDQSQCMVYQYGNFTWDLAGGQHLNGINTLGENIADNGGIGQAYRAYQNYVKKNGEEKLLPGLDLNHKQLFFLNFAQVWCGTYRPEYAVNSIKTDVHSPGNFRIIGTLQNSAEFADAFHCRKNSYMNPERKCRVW
Scale explanation: pIC50 corresponds to minus log10 of a concentration expressed in moles per litre.

Ask: Endpoint output: pIC50 of O=P(O)(O)C(CCc1cccc2ccccc12)N[C@@H](Cc1ccc2c(c1)oc1ccccc12)c1nnn[nH]1 (stereo in doubt; 43a') . Value?
Result: 6.68

Ask: Endpoint output: pIC50 of O=P(O)(O)C(CCc1cccc2ccccc12)N[C@@H](Cc1ccc(-c2ccccc2)cc1)c1nnn[nH]1 (stereo partly drawn) . Value?
Result: 8.30

Ask: Endpoint output: pIC50 of `O=P(O)(O)CN[C@@H](CC#Cc1ccccc1F)c1nnn[nH]1` . Value?
Result: 7.85

Ask: Endpoint output: pIC50 of Cn1c2ccccc2c2ccc(CC(NCP(=O)(O)O)c3nnn[nH]3)cc21 (stereo not drawn) . Value?
Result: 6.85

Ask: Endpoint output: pIC50 of COc1cccc(CCC(N[C@@H](Cc2ccc3c(c2)oc2ccccc23)C(=O)O)P(=O)(O)O)c1OC (stereo in doubt; 40c) . Value?
Result: 4.62

Ask: Endpoint output: pIC50 of `CC(C)C[C@H](NC(=O)[C@H](CC#Cc1ccc(F)cc1F)NCP(=O)(O)O)C(=O)N[C@@H](C)C(=O)O` . Value?
Result: 5.24

Ask: Endpoint output: pIC50 of `CC(C)C[C@H](NP(=O)(O)O[C@@H]1O[C@@H](C)[C@H](O)[C@@H](O)[C@H]1O)C(=O)N[C@@H](Cc1c[nH]c2ccccc12)C(=O)O` . Value?
Result: 7.52

====

test: Selectivity ratio of IC50 NEP/IC50 ECE
Consider the following compounds; for each one, report its Selectivity.
Form rule: numeric answer, no unit written next to it.

Ask: Endpoint output: Selectivity of `O=P(O)(O)CN[C@@H](CC#Cc1ccccc1F)c1nnn[nH]1` . Value?
Result: 0.1

Ask: Endpoint output: Selectivity of O=C1c2ccccc2-c2ccc(CC(NCP(=O)(O)O)c3nnn[nH]3)cc21 (stereo not given) . Value?
Result: 7.7

Ask: Endpoint output: Selectivity of `O=C(O)[C@H](Cc1ccc2c(c1)oc1ccccc12)NCP(=O)(O)O` . Value?
Result: 104

====

assay: Selectivity ratio of IC50 NEP/IC50 ECE
Would you please tag the item TRUE when its Selectivity is 80 or above, and FALSE when it is below?

Ask: Decide: Selectivity of `O=C(O)[C@H](Cc1ccc2c(c1)oc1ccccc12)NC(=O)[C@H](Cc1ccc2c(c1)oc1ccccc12)NCP(=O)(O)O` >= 80?
Result: FALSE

Ask: Decide: Selectivity of O=P(O)(O)CNC(Cc1ccc2c(c1)oc1ccccc12)c1nnn[nH]1 (stereo not given) >= 80?
Result: FALSE

Ask: Decide: Selectivity of CC(N[C@@H](Cc1ccc2c(c1)oc1ccccc12)C(=O)O)P(=O)(O)O (stereo in doubt; 40v) >= 80?
Result: TRUE

Ask: Decide: Selectivity of COc1ccc(CCC(N[C@@H](Cc2ccc3c(c2)oc2ccccc23)C(=O)O)P(=O)(O)O)c(OC)c1OC (stereo in doubt; 40k') >= 80?
Result: TRUE

Ask: Decide: Selectivity of `CC(C)C[C@H](NC(=O)[C@H](CC#Cc1ccc(F)cc1F)NCP(=O)(O)O)C(=O)O` >= 80?
Result: TRUE

Ask: Decide: Selectivity of O=P(O)(O)C(CCc1cccc2ccccc12)N[C@@H](Cc1ccc2c(c1)oc1ccccc12)c1nnn[nH]1 (stereo in doubt; 43b') >= 80?
Result: FALSE

Ask: Decide: Selectivity of O=P(O)(O)CNC(Cc1ccc2c(c1)Cc1ccccc1-2)c1nnn[nH]1 (stereo not given) >= 80?
Result: FALSE

Ask: Decide: Selectivity of O=C(O)[C@H](Cc1ccc2c(c1)oc1ccccc12)NC(CCc1cccc2ccccc12)P(=O)(O)O (stereo in doubt; 40a') >= 80?
Result: TRUE

Ask: Decide: Selectivity of O=C(O)C(Cc1ccccc1)NC(=O)[C@H](Cc1ccc2c(c1)oc1ccccc12)NCP(=O)(O)O (stereo not given in full) >= 80?
Result: FALSE

Ask: Decide: Selectivity of CC(C)CCCC(N[C@@H](Cc1ccc2c(c1)oc1ccccc12)C(=O)O)P(=O)(O)O (stereo not given in full) >= 80?
Result: TRUE

Ask: Decide: Selectivity of O=P(O)(O)C(CCc1cccc2ccccc12)N[C@@H](Cc1ccc(-c2ccccc2)cc1)c1nnn[nH]1 (stereo not given in full) >= 80?
Result: FALSE

Ask: Decide: Selectivity of CC(N[C@@H](Cc1ccc2c(c1)oc1ccccc12)C(=O)O)P(=O)(O)O (stereo in doubt; 40u) >= 80?
Result: TRUE

Ask: Decide: Selectivity of COc1cccc(CCC(N[C@@H](Cc2ccc3c(c2)oc2ccccc23)C(=O)O)P(=O)(O)O)c1OC (stereo in doubt; 40d') >= 80?
Result: FALSE

Ask: Decide: Selectivity of CC(C)CC(NC(=O)[C@H](Cc1ccc2c(c1)oc1ccccc12)NCP(=O)(O)O)C(=O)O (stereo not given in full) >= 80?
Result: FALSE
